- tgt: HLA-A*0201 (HLA-A2.1) (Homo sapiens, UniProt P04439, D140Y/D185E/D98H/E176V/E277Q/G131W/G231S/I119V/I121R/I166T/I218V/L300P/L318F/N151K/N90K/P208A/P217A/Q86G/Q94H/R138H/R169H/T345S)
- experimental details: biochemical
- Type: binding
pIC50: −log10 of the molar value. No end group written: not given here.
Entries and their measured pIC50 follow.

>  <sequence entry>
TTVTTITVYV [Peptide 9013.0192]

>  <censoring sign>
=

>  <pIC50>
5.98

$$$$
>  <sequence entry>
GLLVGVALI [Peptide 9013.0111]

>  <censoring sign>
=

>  <pIC50>
6.80

$$$$
>  <sequence entry>
RLQLSNGNRTL [Peptide 9013.0286]

>  <censoring sign>
<

>  <pIC50>
4.70

$$$$
>  <sequence entry>
TLELFISNI [Peptide 9013.0082]

>  <censoring sign>
=

>  <pIC50>
5.61

$$$$
>  <sequence entry>
LLTFWNPPTV [Peptide 9013.0120]

>  <censoring sign>
=

>  <pIC50>
6.77

$$$$
>  <sequence entry>
VLAEAMSKA [Peptide 1539.07]

>  <censoring sign>
=

>  <pIC50>
7.16

$$$$
